molecular target: Cystathionine gamma-lyase (Homo sapiens, UniProt P32929, R119K); experiment: Inhibition of human CSE R119K mutant expressed in HEK293T cells assessed as reduction in H2S contents
Sequence (P32929 whole entry R119K): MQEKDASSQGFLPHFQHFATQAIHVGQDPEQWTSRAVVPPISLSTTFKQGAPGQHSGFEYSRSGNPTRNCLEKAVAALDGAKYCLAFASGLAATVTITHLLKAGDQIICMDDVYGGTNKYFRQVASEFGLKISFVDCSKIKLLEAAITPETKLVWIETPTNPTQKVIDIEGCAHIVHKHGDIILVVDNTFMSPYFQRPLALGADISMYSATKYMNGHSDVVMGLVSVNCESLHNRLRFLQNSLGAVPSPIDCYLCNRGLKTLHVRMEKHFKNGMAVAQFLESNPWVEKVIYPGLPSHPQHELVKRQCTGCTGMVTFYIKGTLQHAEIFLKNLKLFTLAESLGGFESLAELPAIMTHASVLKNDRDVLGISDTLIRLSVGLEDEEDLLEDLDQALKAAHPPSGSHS
observable: IC50 (µM)
Give just the number in µM; leave the unit off.

Q) # IC50 lookup, item `O=C(O)C1=CC(=C(c2ccc(O)c(C(=O)O)c2)c2ccc(O)c(C(=O)O)c2)C=CC1=O`
A) 245

###

Cystathionine gamma-lyase (Homo sapiens, UniProt P32929): reported pKd for various molecules.
Sequence (P32929 whole entry): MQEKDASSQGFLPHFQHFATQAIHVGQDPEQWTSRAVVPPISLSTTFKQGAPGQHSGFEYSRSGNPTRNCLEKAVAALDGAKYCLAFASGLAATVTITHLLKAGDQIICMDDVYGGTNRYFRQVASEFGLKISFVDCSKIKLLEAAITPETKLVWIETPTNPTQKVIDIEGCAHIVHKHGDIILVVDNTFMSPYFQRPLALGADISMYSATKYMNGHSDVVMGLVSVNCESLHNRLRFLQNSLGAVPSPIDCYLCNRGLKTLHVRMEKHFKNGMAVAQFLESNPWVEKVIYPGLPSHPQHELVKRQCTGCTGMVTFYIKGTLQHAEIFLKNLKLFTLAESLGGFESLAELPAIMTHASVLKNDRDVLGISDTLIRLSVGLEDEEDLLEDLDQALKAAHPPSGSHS
Give only the number. pKd is defined as minus log10 of concentration in molar units.

item.smiles: COc1cccc2c1C(=O)C1=C(C[C@H](CC(=O)O)O[C@H]1C)C2=O
observable: pKd
numeric.result: 5.42

Next:
Q) Give recorded pKd with Cystathionine gamma-lyase (Homo sapiens, UniProt P32929) for the following molecule: `O=C(O)C1=CC(=C(c2ccc(O)c(C(=O)O)c2)c2ccc(O)c(C(=O)O)c2)C=CC1=O`
A) 5.47
